Provide the reported Ki of each item.

Observed Ki on Cyclin-dependent kinase 4 (Homo sapiens) for Cc1nc(C)c(-c2ccnc(Nc3cccc(C(F)(F)F)c3)n2)s1 , please. > 20000 nM

Recorded Ki for Cc1nc(C)c(-c2ccnc(Nc3ccccc3)n2)s1 with Cyclin-dependent kinase 4 (Homo sapiens), please? 2600 nM

So what Ki did Cc1nc(C)c(-c2ccnc(Nc3ccc(Cl)cc3)n2)s1 get with Cyclin-dependent kinase 4 (Homo sapiens)? > 20000 nM

Item: Cc1nc(-c2ccccn2)sc1-c1ccnc(Nc2cccc([N+](=O)[O-])c2)n1 Test system: Cyclin-dependent kinase 4 (Homo sapiens) Read-out: Ki Value: ? > 20000 nM

// fetch Cyclin-dependent kinase 4 (Homo sapiens) Ki for CNc1nc(C)c(-c2ccnc(Nc3cccc(O)c3)n2)s1 370 nM

Requested read-out Ki, target or system Cyclin-dependent kinase 4 (Homo sapiens), entry Cc1nc(C)c(-c2ccnc(Nc3ccc([N+](=O)[O-])cc3)n2)s1 > 20000 nM

Test system Cyclin-dependent kinase 4 (Homo sapiens); read-out Ki; what value for Cc1nc(C)c(-c2ccnc(Nc3ccccc3F)n2)s1 ? 1200 nM

Please provide the recorded Ki for CNc1nccc(-c2sc(C)nc2C)n1 , tested on Cyclin-dependent kinase 4 (Homo sapiens). > 20000 nM
